A collection of compounds and their measured pIC50
- Target Or Test System: Cyclophilin B (Homo sapiens, UniProt P23284)
- Sequence (P23284 34-216): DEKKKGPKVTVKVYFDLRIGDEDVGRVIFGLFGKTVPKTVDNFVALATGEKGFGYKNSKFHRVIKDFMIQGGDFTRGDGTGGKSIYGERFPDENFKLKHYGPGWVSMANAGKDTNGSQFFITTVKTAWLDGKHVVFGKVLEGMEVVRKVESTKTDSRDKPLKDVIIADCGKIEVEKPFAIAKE
- Assay Procedure: Cyclophilin binding, competitive ELISA
- Test Conditions: human recombinant cyclophilin
pIC50: −log10 of the molar value. Numbered stars: 1 amine (or outer) side, 2 acyl side, 3 side chain; on linkers, the order of the positions; unused ones are H or OH. Square brackets hold non-standard residues; d marks the D form. Peptide text beside a SMILES is read from it. ξ: configuration not given here. X5 = CCN(CC)C1(CS[C@H](C(=O)[*:2])N(C)[*:1])CC1; ξNMeBmt = C/C=C/C[C@@H](C)[C@@H](O)C(NC)C(=O)O; NMeLeu(4-OH) = CN[C@@H](CC(C)(C)O)C(=O)O; dNMeL = CN[C@H](CC(C)C)C(=O)O; dNMeV = CN[C@@H](C(=O)O)C(C)C; dAbu = CC[C@@H](N)C(=O)O

Compound	Target Or Test System	pIC50
CC=CC[C@@H](C)[C@@H](O)C1C(=O)NC(CC)C(=O)N(C)C(SCC2(N(C)C(C)C)CC2)C(=O)N(C)[C@@H](CC(C)(C)O)C(=O)NC(C(C)C)C(=O)N(C)C(CC(C)C)C(=O)NC(C)C(=O)NC(C)C(=O)N(C)C(CC(C)C)C(=O)N(C)C(CC(C)C)C(=O)N(C)C(C(C)C)C(=O)N1C (stereo in doubt) [Compound B]	Cyclophilin B (Homo sapiens, UniProt P23284)	7.64
C/C=C/C[C@@H](C)[C@@H](O)C1C(=O)N[C@H](CC)C(=O)N(C)[C@H](SCC2(N(CC)CC)CC2)C(=O)N(C)[C@@H](CC(C)(C)O)C(=O)N[C@H](C(C)C)C(=O)N(C)[C@H](CC(C)C)C(=O)N[C@H](C)C(=O)N[C@@H](C)C(=O)N(C)[C@H](CC(C)C)C(=O)N(C)[C@H](CC(C)C)C(=O)N(C)[C@H](C(C)C)C(=O)N1C (some centres unmarked) [Compound D] (cyclo(A[dNMeL][dNMeL][dNMeV][ξNMeBmt][dAbu][X5][NMeLeu(4-OH)][dV][dNMeL][dA]))	Cyclophilin B (Homo sapiens, UniProt P23284)	7.19

====

Consider the following compounds and their measured IC50 readings.
- Target Or Test System: Cyclophilin B (Homo sapiens, UniProt P23284)
- Assay Procedure: Cyclophilin binding, competitive ELISA
- Test Conditions: human recombinant cyclophilin
Numbered stars: 1 amine (or outer) side, 2 acyl side, 3 side chain; on linkers, the order of the positions; unused ones are H or OH. Square brackets hold non-standard residues; d marks the D form. Peptide text beside a SMILES is read from it. ξ: configuration not given here. X1 = CN(C)C1(CS[C@H](C(=O)[*:2])N(C)[*:1])CCC1; ξNMeBmt = C/C=C/C[C@@H](C)[C@@H](O)C(NC)C(=O)O; X2 = CC(C)[C@H](C(=O)[*:2])N(Cc1ccccc1)[*:1]; NMeLeu(4-OH) = CN[C@@H](CC(C)(C)O)C(=O)O; NMeL = CN[C@@H](CC(C)C)C(=O)O; dNMeL = CN[C@H](CC(C)C)C(=O)O; dNMeV = CN[C@@H](C(=O)O)C(C)C; dAbu = CC[C@@H](N)C(=O)O

Compound	IC50
C/C=C/C[C@@H](C)[C@@H](O)C1C(=O)N[C@H](CC)C(=O)N(C)[C@H](SCC2(N(C)C)CCC2)C(=O)N(C)[C@@H](CC(C)C)C(=O)N(Cc2ccccc2)[C@H](C(C)C)C(=O)N(C)[C@H](CC(C)C)C(=O)N[C@H](C)C(=O)N[C@@H](C)C(=O)N(C)[C@H](CC(C)C)C(=O)N(C)[C@H](CC(C)C)C(=O)N(C)[C@H](C(C)C)C(=O)N1C (stereo partly drawn) [Compound F] (cyclo(A[dNMeL][dNMeL][dNMeV][ξNMeBmt][dAbu][X1][NMeL][X2][dNMeL][dA]))	43 nM
CC=CC[C@@H](C)[C@@H](O)C1C(=O)NC(CC)C(=O)N(C)C(SCC2(N(C)C)CC2)C(=O)N(C)[C@@H](CC(C)(C)O)C(=O)NC(C(C)C)C(=O)N(C)C(CC(C)C)C(=O)NC(C)C(=O)NC(C)C(=O)N(C)C(CC(C)C)C(=O)N(C)C(CC(C)C)C(=O)N(C)C(C(C)C)C(=O)N1C (stereo in doubt) [Compound A]	13 nM
C/C=C/C[C@@H](C)[C@@H](O)C1C(=O)N[C@H](CC)C(=O)N(C)[C@H](SCC2(N(C)C)CCC2)C(=O)N(C)[C@@H](CC(C)(C)O)C(=O)N[C@H](C(C)C)C(=O)N(C)[C@H](CC(C)C)C(=O)N[C@H](C)C(=O)N[C@@H](C)C(=O)N(C)[C@H](CC(C)C)C(=O)N(C)[C@H](CC(C)C)C(=O)N(C)[C@H](C(C)C)C(=O)N1C (stereo partly drawn) [Compound C] (cyclo(A[dNMeL][dNMeL][dNMeV][ξNMeBmt][dAbu][X1][NMeLeu(4-OH)][dV][dNMeL][dA]))	11 nM

Numbers sourced from patent US20140212381A1.
